# test.target: Peroxisome proliferator-activated receptor delta (Homo sapiens)
# Sequence (Q03181 whole entry): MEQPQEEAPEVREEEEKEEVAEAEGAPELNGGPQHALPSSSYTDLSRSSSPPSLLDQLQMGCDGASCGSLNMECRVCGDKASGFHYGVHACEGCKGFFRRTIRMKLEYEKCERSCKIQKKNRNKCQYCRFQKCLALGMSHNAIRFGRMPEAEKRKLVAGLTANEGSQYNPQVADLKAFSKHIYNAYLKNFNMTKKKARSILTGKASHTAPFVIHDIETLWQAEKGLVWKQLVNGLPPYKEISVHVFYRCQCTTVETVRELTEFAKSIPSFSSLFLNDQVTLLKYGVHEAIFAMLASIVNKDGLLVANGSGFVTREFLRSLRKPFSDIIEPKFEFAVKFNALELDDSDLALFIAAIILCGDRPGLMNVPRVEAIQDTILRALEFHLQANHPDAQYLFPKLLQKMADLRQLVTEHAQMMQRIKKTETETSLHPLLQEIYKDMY
# assay.protocol: Agonist activity at PPAR delta (unknown origin)
experimental.endpoint: EC50

[[record]]
smiles_code = "C[C@@H]1CN(c2ccc(OC(F)(F)F)cc2)C[C@H](C)N1S(=O)(=O)c1cccc2c1C[C@@H](C(=O)O)C2"
experimental_endpoint = "EC50"
recorded_value = "1.5 nM"


The measured values listed here are drawn from ChEMBL document CHEMBL3784947.
